assay: cells; conditions: Homo sapiens, HCT-116, 72 h
Reported IC50 values for a set of compounds

[
  {
    "SMILES_DATA": "O=S(=O)(Nc1cc(-c2ccc3nccc(-c4ccc(Cn5cncn5)cc4)c3c2)cnc1Cl)c1ccc(F)cc1",
    "IC50 [nM]": 33
  },
  {
    "SMILES_DATA": "COc1ncc(-c2ccc3nccc(N4CCCC4)c3c2)cc1NS(=O)(=O)c1ccc(F)cc1F",
    "IC50 [nM]": 3320
  },
  {
    "SMILES_DATA": "COc1ncc(-c2ccc3nccc(-c4ccc(Cn5cccn5)cc4)c3c2)cc1NS(=O)(=O)c1ccc(F)cc1F",
    "IC50 [nM]": 53.1
  },
  {
    "SMILES_DATA": "COc1ncc(-c2ccc3nccc(-c4ccc(CN5CCCC5)cc4)c3c2)cc1NS(=O)(=O)c1ccc(F)cc1F",
    "IC50 [nM]": 18.8
  },
  {
    "SMILES_DATA": "COc1ncc(-c2ccc3nccc(-c4ccc(CN5CCN(C)CC5)cc4)c3c2)cc1NS(=O)(=O)c1ccc(F)cc1F",
    "IC50 [nM]": 43.9
  },
  {
    "SMILES_DATA": "COc1ncc(-c2ccc3nccc(-c4ccc(CN5CCOCC5)cc4)c3c2)cc1NS(=O)(=O)c1ccc(F)cc1",
    "IC50 [nM]": 30
  },
  {
    "SMILES_DATA": "COc1ncc(-c2ccc3nccc(-c4ccc(CN(CCO)CCO)cc4)c3c2)cc1NS(=O)(=O)c1ccc(F)cc1F",
    "IC50 [nM]": 3.8
  },
  {
    "SMILES_DATA": "COc1ncc(-c2ccc3nccc(-c4ccnnc4)c3c2)cc1NS(=O)(=O)c1ccc(F)cc1F",
    "IC50 [nM]": 154
  },
  {
    "SMILES_DATA": "O=S(=O)(Nc1cc(-c2ccc3nccc(-c4ccc(Cn5cncn5)cc4)c3c2)cnc1Cl)c1ccc(F)cc1F",
    "IC50 [nM]": 36
  },
  {
    "SMILES_DATA": "COc1ncc(-c2ccc3nccc(Cl)c3c2)cc1NS(=O)(=O)c1ccc(F)cc1F",
    "IC50 [nM]": 6590
  },
  {
    "SMILES_DATA": "CN(C)Cc1ccc(-c2ccnc3ccc(-c4cnc(Cl)c(NS(=O)(=O)c5ccc(F)cc5F)c4)cc23)cc1",
    "IC50 [nM]": 24
  },
  {
    "SMILES_DATA": "COc1ncc(-c2ccc3nccc(-c4ccc(Cn5ccnc5C)cc4)c3c2)cc1NS(=O)(=O)c1ccc(F)cc1F",
    "IC50 [nM]": 14.2
  },
  {
    "SMILES_DATA": "CCN(CC)Cc1ccc(-c2ccnc3ccc(-c4cnc(OC)c(NS(=O)(=O)c5ccc(F)cc5F)c4)cc23)cc1",
    "IC50 [nM]": 5
  },
  {
    "SMILES_DATA": "COc1ncc(-c2ccc3nccc(-c4ccc(CN(C)C)cc4)c3c2)cc1NS(=O)(=O)c1ccc(F)cc1",
    "IC50 [nM]": 24
  },
  {
    "SMILES_DATA": "COc1ncc(-c2ccc3nccc(-c4ccc(CN5CCCCC5)cc4)c3c2)cc1NS(=O)(=O)c1ccc(F)cc1F",
    "IC50 [nM]": 34.1
  },
  {
    "SMILES_DATA": "COc1ncc(-c2ccc3nccc(-c4ccc(CN5CCN(C(C)C)CC5)cc4)c3c2)cc1NS(=O)(=O)c1ccc(F)cc1F",
    "IC50 [nM]": 24.7
  },
  {
    "SMILES_DATA": "COc1ncc(-c2ccc3nccc(N4CCOCC4)c3c2)cc1NS(=O)(=O)c1ccc(F)cc1F",
    "IC50 [nM]": 4430
  },
  {
    "SMILES_DATA": "COc1ncc(-c2ccc3nccc(-c4ccc(Cn5ccnc5)cc4)c3c2)cc1NS(=O)(=O)c1ccc(F)cc1F",
    "IC50 [nM]": 32.6
  },
  {
    "SMILES_DATA": "O=S(=O)(Nc1cc(-c2ccc3nccc(-c4ccc(CN5CCOCC5)cc4)c3c2)cnc1Cl)c1ccc(F)cc1",
    "IC50 [nM]": 41
  },
  {
    "SMILES_DATA": "CN(CCO)Cc1ccc(-c2ccnc3ccc(-c4cnc(Cl)c(NS(=O)(=O)c5ccc(F)cc5F)c4)cc23)cc1",
    "IC50 [nM]": 41
  },
  {
    "SMILES_DATA": "COc1ncc(-c2ccc3nccc(-c4ccc(CN(C)CCO)cc4)c3c2)cc1NS(=O)(=O)c1ccc(F)cc1F",
    "IC50 [nM]": 4.7
  },
  {
    "SMILES_DATA": "COc1ncc(-c2ccc3nccc(-c4ccc(CN5CCN(CCO)CC5)cc4)c3c2)cc1NS(=O)(=O)c1ccc(F)cc1F",
    "IC50 [nM]": 21.7
  },
  {
    "SMILES_DATA": "O=S(=O)(Nc1cc(-c2ccc3nccc(-c4ccc(CN5CCOCC5)cc4)c3c2)cnc1Cl)c1ccc(F)cc1F",
    "IC50 [nM]": 51
  },
  {
    "SMILES_DATA": "COc1ncc(-c2ccc3nccc(-c4ccc(CN(C)C)cc4)c3c2)cc1NS(=O)(=O)c1ccc(F)cc1F",
    "IC50 [nM]": 3
  }
]

src = ChEMBL document CHEMBL3865829
